Attribution: ChEMBL document CHEMBL1136657

- Tested on: Micrococcus luteus
- test.details: Minimum inhibitory concentration against Sarcina lutea (GC 4562) was determined
- Assay type: functional
MIC for assorted compounds

Before answering, review these 4 worked examples.
>>> result("COc1ccc2cc(CO[C@@H]3[C@@H](O[C@H]4[C@H](O)[C@H](O)[C@@H](Oc5ccc(C[C@H]6NC(=O)[C@H]([C@@H](C)c7ccccc7)NC(=O)CNC(=O)[C@H](CO)NC(=O)[C@@H]([C@@H](O)[C@@H]7CN=C(N)N7[C@H]7O[C@H](O)[C@@H](O)[C@H](O)[C@@H]7O)NC(=O)[C@H]([C@@H](O)[C@@H]7CN=C(N)N7)NC6=O)cc5)O[C@@H]4CO)O[C@H](CO)[C@@H](O)[C@@H]3O)ccc2c1")
"16 µg/mL"
>>> result("COc1ccc2cc(COC[C@H]3O[C@H](O[C@H]4[C@H](O)[C@H](O)[C@@H](Oc5ccc(C[C@H]6NC(=O)[C@H]([C@@H](C)c7ccccc7)NC(=O)CNC(=O)[C@H](CO)NC(=O)[C@@H]([C@@H](O)[C@@H]7CN=C(N)N7[C@H]7O[C@H](O)[C@@H](O)[C@H](O)[C@@H]7O)NC(=O)[C@H]([C@@H](O)[C@@H]7CN=C(N)N7)NC6=O)cc5)O[C@@H]4CO)[C@@H](O)[C@@H](O)[C@@H]3O)ccc2c1")
"2 µg/mL"
>>> result("COc1ccc2cc(CO[C@H]3[C@H](O)[C@H](O)[C@@H](O[C@H]4[C@H](O)[C@H](O)[C@@H](Oc5ccc(C[C@H]6NC(=O)[C@H]([C@@H](C)c7ccccc7)NC(=O)CNC(=O)[C@H](CO)NC(=O)[C@@H]([C@@H](O)[C@@H]7CN=C(N)N7[C@H]7O[C@H](O)[C@@H](O)[C@H](O)[C@@H]7O)NC(=O)[C@H]([C@@H](O)[C@@H]7CN=C(N)N7)NC6=O)cc5)O[C@@H]4CO)O[C@@H]3CO)ccc2c1")
"≤ 0.06 µg/mL"
>>> result("CN[C@H](CC(C)C)C(=O)N[C@H]1C(=O)N[C@@H](CC(N)=O)C(=O)N[C@H]2C(=O)N[C@H]3C(=O)N[C@H](C(=O)N[C@H](C(=O)O)c4cc(O)cc(O)c4-c4cc3ccc4O)[C@H](O)c3ccc(c(Cl)c3)Oc3cc2cc(c3O[C@@H]2O[C@H](CO)[C@@H](O)[C@H](O)[C@H]2O[C@H]2C[C@](C)(N)[C@H](O)[C@H](C)O2)Oc2ccc(cc2Cl)[C@H]1O [VANCOMYCIN]")
"1 µg/mL"

Now for a further compound.
Please give the measured MIC for this compound: COc1ccc2cc(CO[C@H]3[C@H](O)[C@@H](CO)OC(O[C@H]4[C@H](O)[C@H](O)[C@@H](Oc5ccc(C[C@H]6NC(=O)[C@H]([C@@H](C)c7ccccc7)NC(=O)CNC(=O)[C@H](CO)NC(=O)[C@@H]([C@@H](O)[C@@H]7CN=C(N)N7[C@H]7O[C@H](O)[C@@H](O)[C@H](O)[C@@H]7O)NC(=O)[C@H]([C@@H](O)[C@@H]7CN=C(N)N7)NC6=O)cc5)O[C@@H]4CO)[C@H]3O)ccc2c1 (stereo not given in full) 0.25 µg/mL

###

MIC for assorted compounds
- System: Enterococcus faecalis
- test.details: Minimum inhibitory concentration against Enterococcus faecalis (GC 2691) was determined
- Type: functional
Reply numerically in µg/mL, unit not repeated.

Please give the measured MIC for this compound: "COc1ccc2cc(CO[C@H]3[C@H](O)[C@H](O)[C@@H](O[C@H]4[C@H](O)[C@H](O)[C@@H](Oc5ccc(C[C@H]6NC(=O)[C@H]([C@@H](C)c7ccccc7)NC(=O)CNC(=O)[C@H](CO)NC(=O)[C@@H]([C@@H](O)[C@@H]7CN=C(N)N7[C@H]7O[C@H](O)[C@@H](O)[C@H](O)[C@@H]7O)NC(=O)[C@H]([C@@H](O)[C@@H]7CN=C(N)N7)NC6=O)cc5)O[C@@H]4CO)O[C@@H]3CO)ccc2c1" 2

Here is the next compound: "COc1ccc2cc(COC[C@H]3O[C@H](O[C@H]4[C@H](O)[C@H](O)[C@@H](Oc5ccc(C[C@H]6NC(=O)[C@H]([C@@H](C)c7ccccc7)NC(=O)CNC(=O)[C@H](CO)NC(=O)[C@@H]([C@@H](O)[C@@H]7CN=C(N)N7[C@H]7O[C@H](O)[C@@H](O)[C@H](O)[C@@H]7O)NC(=O)[C@H]([C@@H](O)[C@@H]7CN=C(N)N7)NC6=O)cc5)O[C@@H]4CO)[C@@H](O)[C@@H](O)[C@@H]3O)ccc2c1" 0.25

Here is the next compound: COc1ccc2cc(CO[C@H]3[C@H](O)[C@@H](CO)OC(O[C@H]4[C@H](O)[C@H](O)[C@@H](Oc5ccc(C[C@H]6NC(=O)[C@H]([C@@H](C)c7ccccc7)NC(=O)CNC(=O)[C@H](CO)NC(=O)[C@@H]([C@@H](O)[C@@H]7CN=C(N)N7[C@H]7O[C@H](O)[C@@H](O)[C@H](O)[C@@H]7O)NC(=O)[C@H]([C@@H](O)[C@@H]7CN=C(N)N7)NC6=O)cc5)O[C@@H]4CO)[C@H]3O)ccc2c1 (stereo partly drawn) 8
